System: mitochondrial ATP production on non-small cell lung carcinoma cell lines NCI-H460
Test: Mitochondrial ATP analysis (Cell Titer Glo) in NCI-H460 cells
Assay type: cell-based
Settings: 1-hour incubation, with sodium iodoacetate (100 μM), concentration inhibiting 50% of mitochondrial ATP production, read-out: IC50 (mito ATP)
metric.name: pIC50
// field semantics: pIC50 = negative decimal log of concentration (mol/L)

Previously resolved entries follow.
COc1ccc(C(O)COc2ccc(-c3coc(-c4ccc(OCC(O)c5ccc(OC)c(OC)c5)cc4)n3)cc2)cc1OC (single isomer, unassigned) [Compound I-13]
7.16
COc1cc(C(O)COc2ccc(-c3coc(-c4ccc(OCC(O)c5cc(OC)c(OC)c(OC)c5)cc4)n3)cc2)cc(OC)c1OC (single isomer, unassigned) [Compound I-22]
5.89

Please look at the following compound next.
Entry COc1ccc(C(O)COc2ccc(-c3csc(-c4ccc(OCC(O)c5ccc(OC)c(OC)c5)cc4)n3)cc2)cc1OC (single isomer, unassigned) [Compound I-62] ; pIC50 = 6.31

meta.source: patent US20170313674A1
